- ASSAY DETAILS: Transcellular transport test using Caco2 cell
- Format: in vitro ADME
- REPORTED CONDITIONS: human, Caco-2, apical-to-basolateral (A-to-B), pH=7.4, 10 µM compound
Measured Papp A→B at 90 min, 10 µM accompanies every entry in the list below.

## Task # return recorded Papp A→B at 90 min, 10 µM for input O=C(O)C[C@H](NC(=O)CNC(=O)c1cc(NC2=NCC(F)CN2)c2cn[nH]c2c1)c1cc(C(F)(F)F)ccc1F (some centres unmarked)
## Result > 1 ×10⁻⁶ cm/s

## Task # return recorded Papp A→B at 90 min, 10 µM for input Cc1ccc([C@H](CC(=O)O)NC(=O)CNC(=O)c2cc(NC3=NCC(F)CN3)c3cn[nH]c3c2)cc1C(F)(F)F (some centres unmarked)
## Result > 1 ×10⁻⁶ cm/s

## Task # return recorded Papp A→B at 90 min, 10 µM for input O=C(O)C[C@H](NC(=O)CNC(=O)c1cc(NC2=NCC(O)CN2)c2cn[nH]c2c1)c1cc(Cl)cc(C(F)(F)F)c1 (some centres unmarked)
## Result > 1 ×10⁻⁶ cm/s

## Task # return recorded Papp A→B at 90 min, 10 µM for input O=C(O)C[C@H](NC(=O)CNC(=O)c1cc(NC2=NCC(F)CN2)c2cn[nH]c2c1)c1cc(F)cc(C(F)(F)F)c1 (some centres unmarked)
## Result > 1 ×10⁻⁶ cm/s

## Task # return recorded Papp A→B at 90 min, 10 µM for input COc1cc([C@H](CC(=O)O)NC(=O)CNC(=O)c2cc(NC3=NCC(F)CN3)c3cn[nH]c3c2)cc(C(F)(F)F)c1 (some centres unmarked)
## Result 0.5 to 1 ×10⁻⁶ cm/s

====

- ASSAY DETAILS: Transcellular transport test using Caco2 cell
- Type: in vitro ADME
- REPORTED CONDITIONS: human, Caco-2, apical-to-basolateral (A-to-B), pH=7.4, 10 µM compound
Measured Papp A→B at 90 min, 10 µM accompanies every entry in the list below.

INSERT INTO results (molecule, measured_result) VALUES
  ('O=C(O)C[C@H](NC(=O)CNC(=O)c1cc(NC2=NCCCN2)c2cn[nH]c2c1)c1cc(Cl)cc(C(F)(F)F)c1 [51-(b)]', '> 1 ×10⁻⁶ cm/s'),
  ('O=C(O)C[C@H](NC(=O)CNC(=O)c1cc(NC2=NCC(F)CN2)c2cn[nH]c2c1)c1cccc(OC2CC2)c1 (stereo partly shown) [40-(b)]', '> 1 ×10⁻⁶ cm/s'),
  ('Cc1cc(C)n(-c2cccc([C@H](CC(=O)O)NC(=O)CNC(=O)c3cc(NC4=NCC(F)CN4)c4cn[nH]c4c3)c2)n1 (stereo partly shown) [44-(b)]', '0.5 to 1 ×10⁻⁶ cm/s'),
  ('O=C(O)C[C@H](NC(=O)CNC(=O)c1cc(NC2=NCC(F)CN2)c2cn[nH]c2c1)c1cc(Br)cc(I)c1 (stereo partly shown) [20-(b)]', '> 1 ×10⁻⁶ cm/s'),
  ('O=C(O)C[C@H](NC(=O)CNC(=O)c1cc(NC2=NCC(F)CN2)c2cn[nH]c2c1)c1cc(Cl)c(F)c(C(F)(F)F)c1 (stereo partly shown) [15-(b)]', '> 1 ×10⁻⁶ cm/s'),
  ('O=C(O)C[C@H](NC(=O)CNC(=O)c1cc(NC2=NCC(F)CN2)c2cn[nH]c2c1)c1cccc(C(F)(F)F)c1F (stereo partly shown) [9-(b)]', '> 1 ×10⁻⁶ cm/s');

Continue with the next molecule.
## Task # return recorded Papp A→B at 90 min, 10 µM for input O=C(O)C[C@H](NC(=O)CNC(=O)c1cc(NC2=NCC(F)CN2)cc2[nH]ncc12)c1cc(I)cc(C(F)(F)F)c1 (stereo partly shown) [54-(b)]
## Result 0.1 to 0.5 ×10⁻⁶ cm/s

====

- ASSAY DETAILS: Transcellular transport test using Caco2 cell
- Format: in vitro ADME
- REPORTED CONDITIONS: human, Caco-2, apical-to-basolateral (A-to-B), pH=7.4, 10 µM compound
MEASURED ATTRIBUTE: Papp A→B at 90 min, 10 µM

Check out these entries, answers already filled in.
INSERT INTO assay_data (compound, measured_result) VALUES
  ('O=C(O)C[C@H](NC(=O)CNC(=O)c1cc(NC2=NCC(F)CN2)c2cn[nH]c2c1)c1cccc(C(F)(F)F)c1 (some centres unmarked)', '> 1 ×10⁻⁶ cm/s'),
  ('O=C(O)C[C@H](NC(=O)CNC(=O)c1cc(NC2=NCC(F)CN2)c2cn[nH]c2c1)c1cc(Br)cc(Br)c1 (some centres unmarked)', '> 1 ×10⁻⁶ cm/s'),
  ('O=C(O)C[C@H](NC(=O)CNC(=O)c1cc(NC2=NCC(F)CN2)c2cn[nH]c2c1)c1ccc(F)c(OC(F)F)c1 (some centres unmarked)', '> 1 ×10⁻⁶ cm/s'),
  ('O=C(O)C[C@H](NC(=O)CNC(=O)c1cc(NC2=NCC(F)CN2)c2cn[nH]c2c1)c1ccc(F)c(OC(F)(F)F)c1 (some centres unmarked)', '> 1 ×10⁻⁶ cm/s'),
  ('O=C(O)C[C@H](NC(=O)CNC(=O)c1cc(NC2=NCC(F)CN2)c2cn[nH]c2c1)c1cc(OC(F)F)cc(C(F)(F)F)c1 (some centres unmarked)', '0.5 to 1 ×10⁻⁶ cm/s'),
  ('O=C(O)C[C@H](NC(=O)CNC(=O)c1cc(NC2=NCC(F)CN2)c2cn[nH]c2c1)c1cc(I)cc(C(F)(F)F)c1 (some centres unmarked)', '> 1 ×10⁻⁶ cm/s'),
  ('O=C(O)C[C@H](NC(=O)CNC(=O)c1cc(NC2=NCC(F)CN2)c2cn[nH]c2c1)c1cc(-n2cccn2)cc(C(F)(F)F)c1 (some centres unmarked)', '0.5 to 1 ×10⁻⁶ cm/s'),
  ('O=C(O)C[C@H](NC(=O)CNC(=O)c1cc(NC2=NCC(F)CN2)c2cn[nH]c2c1)c1cc(Br)cc(C(F)(F)F)c1 (some centres unmarked)', '0.5 to 1 ×10⁻⁶ cm/s'),
  ('O=C(O)C[C@H](NC(=O)CNC(=O)c1cc(NC2=NCC(F)CN2)c2cn[nH]c2c1)c1ccc(C(F)(F)F)cc1 (some centres unmarked)', '> 1 ×10⁻⁶ cm/s'),
  ('O=C(O)C[C@H](NC(=O)CNC(=O)c1cc(NC2=NCC(F)CN2)c2cn[nH]c2c1)c1cc(OC(F)F)cc(OC(F)F)c1 (some centres unmarked)', '0.5 to 1 ×10⁻⁶ cm/s');

## Task # return recorded Papp A→B at 90 min, 10 µM for input O=C(O)C[C@H](NC(=O)CNC(=O)c1cc(NC2=NCC(F)CN2)c2c(Cl)n[nH]c2c1)c1cc(Cl)cc(C(F)(F)F)c1 (some centres unmarked)
## Result 0.5 to 1 ×10⁻⁶ cm/s

## Task # return recorded Papp A→B at 90 min, 10 µM for input O=C(O)C[C@H](NC(=O)CNC(=O)c1cc(NC2=NCC(F)CN2)c2cn[nH]c2c1)c1cccc(Br)c1 (some centres unmarked)
## Result > 1 ×10⁻⁶ cm/s

## Task # return recorded Papp A→B at 90 min, 10 µM for input O=C(O)C[C@H](NC(=O)CNC(=O)c1cc(NC2=NCC(F)CN2)c2cn[nH]c2c1)c1cc(OC(F)F)ccc1F (some centres unmarked)
## Result > 1 ×10⁻⁶ cm/s

## Task # return recorded Papp A→B at 90 min, 10 µM for input O=C(O)C[C@H](NC(=O)CNC(=O)c1cc(NC2=NCC(F)CN2)cc2[nH]ncc12)c1cc(Cl)cc(C(F)(F)F)c1 (some centres unmarked)
## Result 0.1 to 0.5 ×10⁻⁶ cm/s

====

- ASSAY DETAILS: Transcellular transport test using Caco2 cell
- Assay type: in vitro ADME
- REPORTED CONDITIONS: human, Caco-2, apical-to-basolateral (A-to-B), pH=7.4, 10 µM compound
Measured Papp A→B at 90 min, 10 µM accompanies every entry in the list below.

Check out these entries, answers already filled in.
INSERT INTO measurements (compound, measured_result) VALUES
  ('O=C(O)C[C@H](NC(=O)CNC(=O)c1cc(NC2=NCC(F)CN2)c2cn[nH]c2c1)c1cccc(N2CCOCC2)c1 (stereo partly shown) [45-(b)]', '0.5 to 1 ×10⁻⁶ cm/s'),
  ('Cc1cc([C@H](CC(=O)O)NC(=O)CNC(=O)c2cc(NC3=NCC(F)CN3)c3cn[nH]c3c2)cc(C(F)(F)F)c1 (stereo partly shown) [4-(b)]', '> 1 ×10⁻⁶ cm/s'),
  ('O=C(O)C[C@H](NC(=O)CNC(=O)c1cc(NC2=NCC(F)CN2)c2cn[nH]c2c1)c1cc(Cl)cc(OC(F)(F)F)c1 (stereo partly shown) [31-(b)]', '> 1 ×10⁻⁶ cm/s'),
  ('O=C(O)C[C@H](NC(=O)CNC(=O)c1cc(NC2=NCC(F)CN2)c2cn[nH]c2c1)c1cc(C(F)(F)F)ccc1Cl (stereo partly shown) [12-(b)]', '> 1 ×10⁻⁶ cm/s'),
  ('O=C(O)C[C@H](NC(=O)CNC(=O)c1cc(NC2=NCC(F)CN2)c2cn[nH]c2c1)c1cc(C(F)(F)F)cc(C(F)(F)F)c1 (stereo partly shown) [7-(b)]', '0.5 to 1 ×10⁻⁶ cm/s'),
  ('O=C(O)C[C@H](NC(=O)CNC(=O)c1cc(NC2=NCC(F)CN2)cc2[nH]ncc12)c1ccc(F)c(C(F)(F)F)c1 (stereo partly shown) [55-(b)]', '0.1 to 0.5 ×10⁻⁶ cm/s');

## Task # return recorded Papp A→B at 90 min, 10 µM for input O=C(O)C[C@H](NC(=O)CNC(=O)c1cc(NC2=NCC(F)CN2)c2cn[nH]c2c1)c1cc(OC(F)F)cc(-n2cccn2)c1 (stereo partly shown) [29-(b)]
## Result 0.1 to 0.5 ×10⁻⁶ cm/s
